Method: small-molecule microarray binders of probe aEGFR, primary screen, biochemical, biotinylated probe, 635/667 nm fluorescence (AID 1097);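 note: probe is a biotinylated anti-EGFR antibody binding compounds printed on slides; score combines fluorescence near 667 nm and signal to noise of each spot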
Recorded conditions: higher = more signal
molecules and their reported composite z-score
Give the figure only, with no unit attached.

Example molecules with recorded composite z-score:
[ask] Item under review: O=C1C2C=CC(C(O)c3ccc([N+](=O)[O-])cc3)N(Nc3ccc([N+](=O)[O-])cc3)C2C(=O)N1c1ccccc1 (centres undefined) . Reported composite z-score?
[reply] 0.387

[ask] Item under review: CO[C@@H]1COC(=O)[C@H](C)NC(=O)[C@@H](C)COC(=O)CCC[C@H]1C . Reported composite z-score?
[reply] 0.136

[ask] Item under review: CO[C@H]1COC(=O)[C@H](C)COC(=O)CC=C[C@@H](C)[C@H](OC)COC(=O)CC=C[C@@H]1C . Reported composite z-score?
[reply] -0.0302

Query molecule follows.
[ask] Item under review: C[C@H]1Cc2c(-c3ccccc3)nc3c(c2CO1)CN(CCOc1ccccc1)CC3 . Reported composite z-score?
[reply] -0.0114
